- Test system: HT-29
- measurement description: Inhibition of cells growth by colorimetric (SRB) assay, HT-29
- test settings: Homo sapiens, HT-29, 48 h, read-out: LC50 HT-29, SRB assay, 48 hours exposure
readout name: CC50

molecule | recorded value
CSc1nccc(-c2c3c(O)ccnc3n3c(N)nccc23)n1 [Compound 95] | ≥ 30.8 µM
Nc1nccc2c(-c3cccs3)c3cccnc3n12 [Compound 65] | ≥ 37.5 µM
Nc1nccc(-c2c3cc(F)c(Cl)nc3n3c(N)nccc23)n1 [Compound 50] | ≥ 30.3 µM

====

Listed here: items and their measured CC50 at 48 h.
- measurement description: Inhibition of cells growth by colorimetric (SRB) assay, HMEC1
- test settings: human, HMEC1 cells, LC50 H-MEC-1, SRB assay, 48 hours exposure
readout name: CC50 at 48 h (µM)

compound | scale unit | inequality symbol | recorded value
C[S+]([O-])c1nccc(-c2c3c(Cl)ccnc3n3c(N)nccc23)n1 (stereo not drawn) | µM | ≥ | 27.9
COc1cccc(-c2c3cccnc3n3c(N)nccc23)c1.Cl | µM | = | 30.6
CSc1nccc(-c2c3c(N)ccnc3n3c(N)nccc23)n1 | µM | = | 30.9
